The measured values listed here are drawn from ChEMBL document CHEMBL4270615.

Measured pIC50, listed per entry for reference.
Target: Inhibitor of nuclear factor kappa-B kinase subunit beta (Homo sapiens, UniProt O14920)
Sequence (O14920 whole entry): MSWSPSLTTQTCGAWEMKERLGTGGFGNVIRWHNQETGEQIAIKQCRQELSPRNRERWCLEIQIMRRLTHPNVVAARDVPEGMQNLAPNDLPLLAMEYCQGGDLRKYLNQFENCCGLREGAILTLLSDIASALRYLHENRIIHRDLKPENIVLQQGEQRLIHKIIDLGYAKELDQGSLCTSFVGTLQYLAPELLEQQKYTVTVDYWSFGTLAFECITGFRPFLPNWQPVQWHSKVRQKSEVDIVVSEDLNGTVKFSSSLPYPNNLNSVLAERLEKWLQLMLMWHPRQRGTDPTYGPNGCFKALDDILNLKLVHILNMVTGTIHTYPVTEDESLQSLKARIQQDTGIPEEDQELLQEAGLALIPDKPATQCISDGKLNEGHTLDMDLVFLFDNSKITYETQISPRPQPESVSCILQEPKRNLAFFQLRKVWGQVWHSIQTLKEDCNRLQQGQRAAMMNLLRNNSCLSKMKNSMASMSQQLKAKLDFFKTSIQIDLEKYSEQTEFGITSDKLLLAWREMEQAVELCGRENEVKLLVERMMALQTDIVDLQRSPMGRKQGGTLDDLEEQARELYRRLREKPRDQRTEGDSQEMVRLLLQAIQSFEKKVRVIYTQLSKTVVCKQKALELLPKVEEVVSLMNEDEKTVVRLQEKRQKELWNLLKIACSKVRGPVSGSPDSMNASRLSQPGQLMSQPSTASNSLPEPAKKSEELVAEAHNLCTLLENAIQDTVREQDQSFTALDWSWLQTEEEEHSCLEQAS
Test: Irreversible inhibition of IKKbeta (unknown origin) using IkappaBalpha-derived 5FAMGRHDSGLDSMK-NH2 as substrate measured after 60 mins
pIC50 is defined as minus the log10 of a concentration measured in mol/L.

Report pIC50 for O=C1S/C(=C\c2ccc(N3CCOCC3)c(Cl)c2)C(=O)N1c1ccc(OCCCN2CCN(CC3CC3)CC2)cc1 please.
6.60

Returns the measured pIC50 for the input compound. Input: O=C1S/C(=C\c2ccc(Oc3ccc(F)cc3)cc2)C(=O)N1c1ccc(OCCCCCN2CCN(CC3CC3)CC2)cc1
6.62

====

Target: Inhibitor of nuclear factor kappa-B kinase subunit beta (Homo sapiens) (UniProt O14920)
Assay: Inhibition of IKKbeta (unknown origin) at 10 uM using IkappaBalpha-derived 5FAMGRHDSGLDSMK-NH2 as substrate preincubated for 10 mins followed by substrate addition measured after 2 hrs by IMAP based TR-FRET assay relative to control
Endpoint: inhibition (%)
State the answer as a number, implicitly in %.

Example cases with answers are listed next.
CS(=O)(=O)N1CCN(CCCCOc2ccc(N3C(=O)S/C(=C\c4ccc(Oc5ccc(F)cc5)cc4)C3=O)cc2)CC1 | 2.7
O=C(C1CC1)N1CCN(CCCCOc2ccc(N3C(=O)S/C(=C\c4ccc(Oc5ccc(F)cc5)cc4)C3=O)cc2)CC1 | 21.2
COCCN1CCN(CCCCOc2ccc(N3C(=O)S/C(=C\c4ccc(Oc5ccc(Cl)cc5)cc4)C3=O)cc2)CC1 | 1.7

Then this compound:
Request the reported inhibition associated with COCCCN1CCN(CCCCOc2ccc(N3C(=O)S/C(=C\c4ccc(Oc5ccc(Br)cc5)cc4)C3=O)cc2)CC1
0
